- TARGET_UNDER_TEST: soluble guanylate cyclase (sGC) (Homo sapiens (Human), UniProt Q02108+Q02153)
- Sequence (Q02153 whole entry): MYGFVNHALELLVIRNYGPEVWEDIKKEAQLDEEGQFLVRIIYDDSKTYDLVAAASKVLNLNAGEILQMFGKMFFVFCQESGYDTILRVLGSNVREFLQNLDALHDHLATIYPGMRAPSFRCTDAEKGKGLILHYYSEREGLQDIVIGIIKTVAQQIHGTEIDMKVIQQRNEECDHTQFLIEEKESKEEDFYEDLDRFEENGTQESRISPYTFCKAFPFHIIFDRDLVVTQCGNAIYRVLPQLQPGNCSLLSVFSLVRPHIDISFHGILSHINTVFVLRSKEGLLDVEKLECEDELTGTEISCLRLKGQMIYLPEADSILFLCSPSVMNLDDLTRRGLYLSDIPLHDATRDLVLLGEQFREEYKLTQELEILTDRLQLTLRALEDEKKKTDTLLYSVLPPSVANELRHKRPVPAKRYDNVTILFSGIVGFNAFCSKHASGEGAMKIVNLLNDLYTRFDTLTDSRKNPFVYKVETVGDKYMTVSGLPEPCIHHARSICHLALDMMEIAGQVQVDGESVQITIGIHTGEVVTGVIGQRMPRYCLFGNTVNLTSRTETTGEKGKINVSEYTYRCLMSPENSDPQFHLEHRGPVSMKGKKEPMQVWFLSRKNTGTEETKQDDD
- Sequence (Q02108 whole entry): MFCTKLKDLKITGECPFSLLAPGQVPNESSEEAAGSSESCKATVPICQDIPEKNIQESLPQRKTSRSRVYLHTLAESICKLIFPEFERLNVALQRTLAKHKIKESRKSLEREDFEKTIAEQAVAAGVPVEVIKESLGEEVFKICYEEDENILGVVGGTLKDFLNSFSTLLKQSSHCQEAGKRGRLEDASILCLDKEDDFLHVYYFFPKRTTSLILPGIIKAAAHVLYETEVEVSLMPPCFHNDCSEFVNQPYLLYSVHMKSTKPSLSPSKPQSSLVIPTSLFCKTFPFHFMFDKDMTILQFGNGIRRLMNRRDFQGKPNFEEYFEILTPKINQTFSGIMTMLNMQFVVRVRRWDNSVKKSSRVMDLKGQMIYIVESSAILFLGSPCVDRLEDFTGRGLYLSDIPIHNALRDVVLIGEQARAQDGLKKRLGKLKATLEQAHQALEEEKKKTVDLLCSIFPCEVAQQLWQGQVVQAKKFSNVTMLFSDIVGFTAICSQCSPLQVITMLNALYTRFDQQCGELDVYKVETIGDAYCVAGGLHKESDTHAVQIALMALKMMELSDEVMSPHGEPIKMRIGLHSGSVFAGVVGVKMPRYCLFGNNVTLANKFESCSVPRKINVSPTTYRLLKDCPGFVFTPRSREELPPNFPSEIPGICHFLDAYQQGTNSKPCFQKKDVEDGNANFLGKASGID
- ASSAY_SUMMARY: sGC-HEK-cGMP assay run with SNP incubation (HEK WC assay)
- Assay type: cell-based
- CONDITIONS: read-out: HEK WC Assay (% Emax at 30 μM with 10 uM SNP)
PROPERTY: Emax

• Oc1nc(-c2cc(-c3ccon3)n(Cc3ccccc3F)n2)ncc1-c1ccncc1 = 40 to 60%

For record `CC(C)(CCl)C(=O)Nc1cnc(-c2cc(-c3ccon3)n(Cc3ccccc3F)n2)nc1N` the listed Emax is 80 to 100%

The compound `CS(=O)(=O)c1cnc(-c2cc(-c3ccon3)n(Cc3ccccc3F)n2)nc1O` showed Emax equal to 80 to 100%

# Emax of `Fc1ccccc1Cn1nc(-c2ccccn2)cc1-n1cncn1` = 0 to 10%

`O=C(Nc1cnc(-c2cc(-c3ccon3)n(Cc3ccccc3F)n2)nc1O)c1ccccc1` yielded Emax of 20 to 40%

Notebook: `CN(C(=O)C(C)(C)C)c1cnc(-c2cc(-c3ccon3)n(Cc3ccccc3F)n2)nc1N` , Emax read as 40 to 60%

# Emax (compound: `Nc1nc(-c2cc(-c3ccon3)n(Cc3ccccc3F)n2)ncc1NC(=O)C12CC3CC(CC(C3)C1)C2` ) is 80 to 100%

Reported Emax ( `Nc1nc(-c2cc(-c3ccon3)n(Cc3ccccc3F)n2)ncc1NC(=O)c1ccccc1` ) = 100 to 120%

GET /value?item= `Nc1cc(C(F)(F)F)nc(-c2cc(-c3ccon3)n(Cc3ccccc3F)n2)n1` &field=Emax returns 0 to 10%

Input `Nc1nc(-c2cc(-c3ccon3)n(Cc3ccccc3F)n2)ncc1NC(=O)c1nccs1` . Output Emax: 60 to 80%

The value of Emax measured for the compound `Oc1nc(-c2cc(-c3ccon3)n(Cc3ccccc3F)n2)ncc1C(F)(F)F` turned out to be 40 to 60%

The value of Emax measured for the compound `N#CC1(C(=O)Nc2cnc(-c3cc(-c4ccon4)n(Cc4ccccc4F)n3)nc2N)CC1` turned out to be 100 to 120%

---

- TARGET_UNDER_TEST: soluble guanylate cyclase (sGC) (Homo sapiens (Human), UniProt Q02108+Q02153)
- ASSAY_SUMMARY: sGC-HEK-cGMP assay run with SNP incubation (HEK WC assay)
- Format: cell-based
- CONDITIONS: read-out: HEK WC Assay (% Emax at 10 uM/with 10 uM SNP)
PROPERTY: Emax at 10 µM

• Fc1ccccc1Cn1nc(-c2ccccn2)cc1-c1cnccn1 [Compound I-34] = 0 to 10%
• Fc1ccccc1Cn1nc(-c2ncccn2)cc1-c1cnc2ccoc2c1 [Compound I-32] = 0 to 10%
• N#Cc1cc(-c2ccccn2)nn1Cc1ccccc1F [Compound I-3] = 20 to 40%
• CS(=O)(=O)c1ccc(-c2cc(-c3ccccn3)n(Cc3ccccc3F)n2)nc1 [Compound I-50] = 0 to 10%
• Fc1ccccc1Cn1nc(-c2ccccn2)cc1-c1cccs1 [Compound I-35] = 10 to 20%
• Cc1ccc(-c2cc(-c3ccccn3)nn2Cc2ccccc2F)nc1 [Compound I-56] = 0 to 10%
• Nc1ccnc(-c2cc(-c3ccccn3)n(Cc3ccccc3F)n2)n1 [Compound I-31] = 0 to 10%
• Fc1ccccc1Cn1nc(-c2ccccn2)c(Br)c1-c1ccccn1 [Compound I-62] = 0 to 10%

Now consider the entry below.
The reported soluble guanylate cyclase (sGC) (Homo sapiens (Human), UniProt Q02108+Q02153) Emax at 10 µM of Fc1ccc(-c2cc(-c3ccccn3)nn2Cc2ccccc2F)cc1 [Compound I-12] is 0 to 10%

Source listed as patent US10189809B2.
